system_under_test: Insulin-like growth factor 1 receptor (Homo sapiens)
condition_label: at 1 µM
measurement_kind: residual activity (%)

>>> meas_value("COc1cc2ncnc(Nc3ccc(Oc4ccccc4)cc3)c2cc1OC")
117
>>> meas_value("CCC(=O)Nc1ccc2ncnc(Nc3cccc(Br)c3)c2c1")
132
>>> meas_value("Oc1c2ccccc2c2c3c(cccc13)N=N2")
91
>>> meas_value("COc1ccc(OC)c2c(=S)c3ccccc3[nH]c12")
103
>>> meas_value("COc1cccc(-c2cc(=O)c3ccccc3o2)c1N")
91
>>> meas_value("Nc1cccc(-c2cc3c(Oc4cccc(O)c4)ncnc3[nH]2)c1")
99
>>> meas_value("COc1ccc(C(=O)Nc2sc3c(c2C(N)=O)CCCC3)cc1OC")
115
>>> meas_value("Ic1cccc(CSc2nnc(-c3ccncc3)o2)c1")
96
>>> meas_value("Cc1cc2ncc(-c3ccccc3)nc2cc1C")
131
>>> meas_value("CO[C@H]1C[C@@H]2CC[C@@H](C)[C@@](O)(O2)C(=O)C(=O)N2CCCC[C@H]2C(=O)O[C@H]([C@H](C)C[C@@H]2CC[C@@H](O)[C@H](OC)C2)CC(=O)[C@H](C)/C=C(\\C)[C@@H](O)[C@@H](OC)C(=O)[C@H](C)C[C@H](C)/C=C/C=C/C=C/1C")
123

----------
Listed below: residual activity values for each entry.
system_under_test: Ephrin type-B receptor 4 (Homo sapiens) (UniProt P54760)
Sequence (P54760 whole entry): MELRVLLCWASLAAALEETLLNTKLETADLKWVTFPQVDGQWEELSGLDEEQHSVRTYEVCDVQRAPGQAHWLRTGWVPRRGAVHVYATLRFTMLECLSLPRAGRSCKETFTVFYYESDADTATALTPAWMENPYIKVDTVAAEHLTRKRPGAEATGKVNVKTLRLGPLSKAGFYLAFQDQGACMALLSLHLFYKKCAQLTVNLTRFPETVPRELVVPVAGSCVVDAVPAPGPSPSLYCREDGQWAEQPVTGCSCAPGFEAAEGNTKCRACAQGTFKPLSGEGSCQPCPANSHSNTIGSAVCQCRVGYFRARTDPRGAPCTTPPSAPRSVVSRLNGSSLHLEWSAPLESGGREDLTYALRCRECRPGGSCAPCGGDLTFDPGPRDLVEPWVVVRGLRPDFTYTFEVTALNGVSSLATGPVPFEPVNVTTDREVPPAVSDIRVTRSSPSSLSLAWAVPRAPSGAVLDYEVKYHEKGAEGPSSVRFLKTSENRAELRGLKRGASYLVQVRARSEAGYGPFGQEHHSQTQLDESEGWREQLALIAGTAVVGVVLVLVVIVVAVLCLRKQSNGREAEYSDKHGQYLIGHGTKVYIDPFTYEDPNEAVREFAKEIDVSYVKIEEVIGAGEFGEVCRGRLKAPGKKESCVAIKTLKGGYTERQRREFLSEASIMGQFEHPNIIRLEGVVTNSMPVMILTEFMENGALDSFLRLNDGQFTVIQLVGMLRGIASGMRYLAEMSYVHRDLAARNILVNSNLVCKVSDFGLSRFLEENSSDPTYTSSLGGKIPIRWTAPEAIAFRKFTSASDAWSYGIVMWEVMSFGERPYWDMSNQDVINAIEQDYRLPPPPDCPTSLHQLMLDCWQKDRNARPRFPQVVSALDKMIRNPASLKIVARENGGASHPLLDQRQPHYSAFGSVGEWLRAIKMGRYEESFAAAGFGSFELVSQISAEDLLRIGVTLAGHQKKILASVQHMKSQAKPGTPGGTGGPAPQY
condition_label: at 1 µM
Description: Millipore: Percentage of residual kinase activity of EPHB4 at 1uM relative to control. Control inhibitor: PP2 at 30.0uM. Buffer: 8 mM MOPS pH 7.0, 0.2 mM EDTA, 10 mM MnCl2
measurement_kind: residual activity (%)

>>> meas_value("CO[C@H]1[C@@H](OC)C[C@H](C)[C@@H](OC)C2=CC(=O)C=C(NC(=O)/C(C)=C/C=C/[C@H](OC)[C@@H](OC(N)=O)/C(C)=C/[C@@H]1C)C2=O")
94
>>> meas_value("Oc1n[nH]c2nnc(-c3c(-c4ccccc4)nn4ccccc34)cc12")
86
>>> meas_value("Oc1ccc(-c2nc(-c3ccc(F)cc3)c(-c3ccncc3)[nH]2)cc1")
103
>>> meas_value("O=C(O)c1ccc2c3c1cccc3c(=O)n1c3ccccc3nc21")
102
>>> meas_value("Ic1cccc(CSc2nnc(-c3ccncc3)o2)c1")
84
>>> meas_value("CN(C)c1ccc(/C=C2\\C(=O)Nc3ccccc32)cc1")
97
>>> meas_value("COc1cc2ncc(-c3ccccc3)nc2cc1OC")
125
>>> meas_value("COc1cc2ncnc(N3CCN(C(=O)Nc4ccc(Oc5ccccc5)cc4)CC3)c2cc1OC")
98
>>> meas_value("CCN(CC)C(=O)c1ccc(Nc2nc(OCC3CCCCC3)c3nc[nH]c3n2)cc1")
72
>>> meas_value("Cc1cc(Nc2nc(-c3ccccc3)nc3ccccc23)n[nH]1")
75
>>> meas_value("O=C1Nc2ccc(Br)cc2/C1=C\\c1cc2c([nH]1)CCCC2")
118
>>> meas_value("O=C(Nc1cccc(Nc2nccc(Nc3cccc(C(F)(F)F)c3)n2)c1)C1CC1")
109
>>> meas_value("COc1ccc(C(=O)Nc2sc3c(c2C(N)=O)CCCC3)cc1OC")
98
>>> meas_value("CN(C)CCCn1cc(C2=C(c3c[nH]c4ccccc34)C(=O)NC2=O)c2ccccc21")
124
>>> meas_value("O=C1Nc2cc(Br)ccc2/C1=C1/Nc2ccccc2/C1=N\\O")
17
>>> meas_value("CNc1cc2c(Nc3cccc(Br)c3)ncnc2cn1")
63
>>> meas_value("Nc1cccc(-c2cc3c(Oc4cccc(O)c4)ncnc3[nH]2)c1")
2
>>> meas_value("Nc1nc(Nc2ccc(S(N)(=O)=O)cc2)nn1C(=S)Nc1c(F)cccc1F")
30
>>> meas_value("Cn1cc(/C=C2\\C(=O)Nc3ccc(S(N)(=O)=O)cc32)c2ccccc21")
57
>>> meas_value("O=c1cc(-c2cccc3c2Sc2ccccc2S3)oc(N2CCOCC2)c1")
113
>>> meas_value("Cn1nc2c3c(cccc31)C(=O)c1ccccc1-2")
87
>>> meas_value("CC(C)n1cnc2c(NCc3ccccc3)nc(NCCCO)nc21")
100
>>> meas_value("c1ccc2c(-c3ccncc3)c[nH]c2c1")
111
>>> meas_value("O=C1NC(=O)c2cc(Nc3ccc(F)cc3)c(Nc3ccc(F)cc3)cc21")
95
>>> meas_value("Cc1ccc(S(=O)(=O)/C=C/C#N)cc1")
97
>>> meas_value("c1ccc(-c2n[nH]c3c2oc2ccccc23)cc1")
100
>>> meas_value("N#CC(C#N)=C(N)/C(C#N)=C/c1ccc(O)cc1")
116
>>> meas_value("O=[N+]([O-])c1ccc(-c2nc(-c3ccc(F)cc3)c(-c3ccncc3)[nH]2)cc1")
89
>>> meas_value("O=C1NC(=O)/C(=C/c2ccc3c(c2)OC(F)(F)O3)S1")
118
>>> meas_value("Oc1ccc(Nc2nc(-c3ccc(Cl)cc3)cs2)cc1")
109
>>> meas_value("COc1ccc(OC)c2c(=S)c3ccccc3[nH]c12")
97
>>> meas_value("COc1cc2ncnc(Nc3ccc(O)c(Br)c3)c2cc1OC")
19
>>> meas_value("N#C/C(=C(\\N)Sc1ccc(N)cc1)c1ccccc1C(F)(F)F")
93
>>> meas_value("O=Nc1c(-c2c(O)[nH]c3ccccc23)[nH]c2ccccc12")
67
>>> meas_value("Cc1ccc(NC2=CC(=O)c3sc(C)nc3C2=O)cc1")
98
>>> meas_value("COc1cccc(-c2cc(=O)c3ccccc3o2)c1N")
94
>>> meas_value("C[C@@H](N)[C@H]1CC[C@H](C(=O)Nc2ccncc2)CC1")
108
>>> meas_value("Nc1n[nH]c2nnc(-c3c(-c4ccccc4)nn4ccccc34)cc12")
83
>>> meas_value("O=C1Nc2ccccc2/C1=C1/Nc2ccccc2/C1=N\\OCCC(O)CO (stereo unspecified)")
49
>>> meas_value("c1ccc(-c2n[nH]cc2-c2ccnc3ccccc23)nc1")
109
>>> meas_value("CC[n+]1c(/C=C/N(C)c2ccccc2)n(-c2ccccc2)c2ccc(-c3nc4ccccc4s3)cc21")
114
>>> meas_value("Nc1ccc2ncnc(NCCc3ccc(Oc4ccccc4)cc3)c2c1")
96
>>> meas_value("CCC(=O)Nc1ccc2ncnc(Nc3cccc(Br)c3)c2c1")
81
>>> meas_value("O=C1NC(=O)c2c1c1c3ccccc3[nH]c1c1[nH]c3cc(Br)ccc3c21")
102
>>> meas_value("CCN(CC)CCCCN1c2ccccc2Oc2ccc(Cl)cc21")
109
>>> meas_value("COc1ccc(CNc2nc(N(CCO)CCO)nc3c2ncn3C(C)C)cc1")
87

----------
system_under_test: Cyclin-dependent kinase 5/CDK5 activator 1 (Homo sapiens) (UniProt Q00535+Q15078)
Sequence (Q00535 whole entry): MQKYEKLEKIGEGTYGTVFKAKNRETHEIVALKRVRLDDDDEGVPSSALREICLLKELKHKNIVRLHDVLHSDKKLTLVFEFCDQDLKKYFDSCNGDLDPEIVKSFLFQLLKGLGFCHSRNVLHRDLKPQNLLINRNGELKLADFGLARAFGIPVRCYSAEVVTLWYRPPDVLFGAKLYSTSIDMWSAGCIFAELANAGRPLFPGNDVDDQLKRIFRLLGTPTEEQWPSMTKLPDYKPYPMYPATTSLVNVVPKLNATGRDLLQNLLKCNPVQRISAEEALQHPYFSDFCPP
Sequence (Q15078 99-307 partner limits assumed): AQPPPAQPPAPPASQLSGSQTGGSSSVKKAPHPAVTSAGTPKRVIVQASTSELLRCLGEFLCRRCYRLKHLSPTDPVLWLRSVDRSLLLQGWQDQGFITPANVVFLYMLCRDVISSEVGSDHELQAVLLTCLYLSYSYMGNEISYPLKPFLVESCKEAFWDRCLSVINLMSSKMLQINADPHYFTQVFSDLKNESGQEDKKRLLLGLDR
condition_label: at 10 µM
measurement_kind: residual activity (%)

>>> meas_value("CO[C@@H]1[C@H](N(C)C(=O)c2ccccc2)C[C@H]2O[C@]1(C)n1c3ccccc3c3c4c(c5c6ccccc6n2c5c31)C(=O)NC4")
40
>>> meas_value("Cc1cc2ncc(-c3ccccc3)nc2cc1C")
94
>>> meas_value("O=C1Nc2cc(Br)ccc2/C1=C1/Nc2ccccc2/C1=N\\O")
10
>>> meas_value("N#CC(C#N)=C(N)/C(C#N)=C/c1ccc(O)cc1")
83
>>> meas_value("c1ccc(-c2n[nH]c3c2oc2ccccc23)cc1")
27
>>> meas_value("CC(C)n1cnc2/c(=N/c3cccc(Cl)c3)nc(NCCO)[nH]c21")
0
>>> meas_value("Cn1cnc2cc3c(Nc4cccc(Br)c4)ncnc3cc21")
104
>>> meas_value("Cc1cccc(-c2[nH]c(C(C)(C)C)nc2-c2ccc3c(c2)OCO3)n1")
88
>>> meas_value("c1ccc2c(-c3ccncc3)c[nH]c2c1")
74
>>> meas_value("Oc1ccc(-c2nc(-c3ccc(F)cc3)c(-c3ccncc3)[nH]2)cc1")
91
>>> meas_value("Nc1ccc2ncnc(NCCc3ccc(Oc4ccccc4)cc3)c2c1")
85
>>> meas_value("Cc1cncc2cccc(S(=O)(=O)N3CCCN(C(=O)CN)C[C@H]3C)c12")
80
>>> meas_value("O=C1c2ccccc2-[n+]2ccc3c([nH]c4ccccc43)c21")
82
>>> meas_value("C[C@@H](N)[C@H]1CC[C@H](C(=O)Nc2ccncc2)CC1")
85
>>> meas_value("Cc1cc(Nc2nc(-c3ccccc3)nc3ccccc23)n[nH]1")
32
>>> meas_value("O=C(O)c1ccc2c3c1cccc3c(=O)n1c3ccccc3nc21")
43
>>> meas_value("Cn1nc2c3c(cccc31)C(=O)c1ccccc1-2")
93
>>> meas_value("CCN(CC)CCCCN1c2ccccc2Oc2ccc(Cl)cc21")
102
>>> meas_value("N#C/C(=C(\\N)Sc1ccc(N)cc1)c1ccccc1C(F)(F)F")
92
>>> meas_value("Oc1ccc(Nc2nc(-c3ccc(Cl)cc3)cs2)cc1")
90
>>> meas_value("Nc1nc(Nc2ccc(S(N)(=O)=O)cc2)nn1C(=S)Nc1c(F)cccc1F")
-1
>>> meas_value("COc1cc2ncnc(N3CCN(C(=O)Nc4ccc(Oc5ccccc5)cc4)CC3)c2cc1OC")
55
>>> meas_value("Cc1nc(-c2ccccc2)c(-c2ccncc2)o1")
94
>>> meas_value("O=c1c2ccccc2[nH]c(=S)n1CCN1CCC(=C(c2ccc(F)cc2)c2ccc(F)cc2)CC1")
89
>>> meas_value("Nc1n[nH]c2nnc(-c3c(-c4ccccc4)nn4ccccc34)cc12")
99
>>> meas_value("N#CCCc1ccc2c(c1)-c1[nH]c3ccc([N+](=O)[O-])cc3c1CC(=O)N2")
0
>>> meas_value("COc1cccc(-c2cc(=O)c3ccccc3o2)c1N")
99
>>> meas_value("Nc1cccc(-c2cc3c(Oc4cccc(O)c4)ncnc3[nH]2)c1")
12
>>> meas_value("O=C(Nc1cccc(Nc2nccc(Nc3cccc(C(F)(F)F)c3)n2)c1)C1CC1")
98
>>> meas_value("COc1cc2ncnc(Nc3ccc(Oc4ccccc4)cc3)c2cc1OC")
92
>>> meas_value("O=C1NC(=O)/C(=C/c2ccc3c(c2)OC(F)(F)O3)S1")
91
>>> meas_value("Oc1n[nH]c2nnc(-c3c(-c4ccccc4)nn4ccccc34)cc12")
103
>>> meas_value("CO[C@H]1C[C@@H]2CC[C@@H](C)[C@@](O)(O2)C(=O)C(=O)N2CCCC[C@H]2C(=O)O[C@H]([C@H](C)C[C@@H]2CC[C@@H](O)[C@H](OC)C2)CC(=O)[C@H](C)/C=C(\\C)[C@@H](O)[C@@H](OC)C(=O)[C@H](C)C[C@H](C)/C=C/C=C/C=C/1C")
92
>>> meas_value("CCC(=O)Nc1ccc2ncnc(Nc3cccc(Br)c3)c2c1")
113
>>> meas_value("CN(C)CCCn1cc(C2=C(c3c[nH]c4ccccc34)C(=O)NC2=O)c2ccccc21")
25
>>> meas_value("CC(=O)c1ccc(N2CCOCC2)cc1O")
74
>>> meas_value("Cc1ccc(NC2=CC(=O)c3sc(C)nc3C2=O)cc1")
97
>>> meas_value("Cc1nc2cc3nc(-c4cccs4)cnc3cc2n1C")
109
>>> meas_value("O=C1NC(=O)c2c1c1c3ccccc3[nH]c1c1[nH]c3cc(Br)ccc3c21")
62
